Value source: ChEMBL document CHEMBL1155477

target: Rho-associated protein kinase 1 (Homo sapiens, UniProt Q13464)
Sequence (Q13464 whole entry): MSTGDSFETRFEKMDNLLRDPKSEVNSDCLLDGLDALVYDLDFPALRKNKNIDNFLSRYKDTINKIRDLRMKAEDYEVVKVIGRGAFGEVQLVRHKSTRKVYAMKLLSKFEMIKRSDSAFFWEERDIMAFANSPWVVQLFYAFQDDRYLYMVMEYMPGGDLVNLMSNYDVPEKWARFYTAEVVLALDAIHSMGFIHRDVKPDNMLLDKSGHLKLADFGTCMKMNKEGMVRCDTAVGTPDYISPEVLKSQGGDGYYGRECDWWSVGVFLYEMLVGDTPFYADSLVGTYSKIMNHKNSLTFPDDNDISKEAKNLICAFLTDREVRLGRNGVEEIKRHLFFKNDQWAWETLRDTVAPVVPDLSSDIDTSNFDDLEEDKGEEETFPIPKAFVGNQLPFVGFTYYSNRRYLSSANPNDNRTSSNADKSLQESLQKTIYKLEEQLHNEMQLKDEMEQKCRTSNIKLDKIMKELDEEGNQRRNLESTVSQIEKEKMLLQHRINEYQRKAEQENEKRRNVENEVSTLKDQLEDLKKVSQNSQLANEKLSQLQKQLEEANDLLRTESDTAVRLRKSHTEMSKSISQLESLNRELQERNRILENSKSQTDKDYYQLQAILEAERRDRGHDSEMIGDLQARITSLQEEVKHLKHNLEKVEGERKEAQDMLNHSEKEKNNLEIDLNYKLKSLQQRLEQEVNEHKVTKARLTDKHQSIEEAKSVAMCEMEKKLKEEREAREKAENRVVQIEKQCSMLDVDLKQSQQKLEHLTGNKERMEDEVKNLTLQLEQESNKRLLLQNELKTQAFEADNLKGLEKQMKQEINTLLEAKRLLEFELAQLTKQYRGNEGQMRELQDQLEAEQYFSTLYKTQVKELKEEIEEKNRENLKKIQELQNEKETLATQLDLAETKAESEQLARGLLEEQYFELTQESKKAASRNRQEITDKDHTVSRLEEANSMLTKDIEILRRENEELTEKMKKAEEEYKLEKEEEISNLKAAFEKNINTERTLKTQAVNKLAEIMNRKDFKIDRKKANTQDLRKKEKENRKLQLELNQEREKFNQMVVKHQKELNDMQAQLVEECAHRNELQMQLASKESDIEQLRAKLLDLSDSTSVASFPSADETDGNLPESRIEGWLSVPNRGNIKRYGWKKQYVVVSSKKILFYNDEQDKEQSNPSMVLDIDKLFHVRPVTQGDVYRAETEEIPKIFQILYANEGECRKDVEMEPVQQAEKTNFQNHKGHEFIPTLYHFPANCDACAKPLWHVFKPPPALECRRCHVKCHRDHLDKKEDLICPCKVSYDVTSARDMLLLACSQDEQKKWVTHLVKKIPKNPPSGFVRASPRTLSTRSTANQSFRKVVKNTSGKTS
Endpoint label: IC50 (nM)

>  <Molecule>
Cc1c(-c2ccnc(N)n2)sc2ccc(C(N)C(C)C)cc12 (racemic)

>  <Endpoint label>
IC50

>  <Reading>
60

$$$$
>  <Molecule>
Cc1c(-c2ccnc(N)n2)sc2ccccc12

>  <Endpoint label>
IC50

>  <Reading>
2900

$$$$
>  <Molecule>
CCCC(N)c1ccc2sc(-c3ccnc(N)n3)c(C)c2c1 (racemic)

>  <Endpoint label>
IC50

>  <Reading>
20

$$$$

1: Cc1c(-c2ccnc(N)n2)sc2ccc(C(N)c3ccccc3)cc12 (racemic)
2: COc1ccccc1Cc1ccc2sc(-c3ccnc(N)n3)c(C)c2c1
Record comparison, field IC50: mark the lower of 1 and 2 . Reply with the label of the item you choose.
1
(1: 20 nM, 2: 9700 nM)

1: Cc1c(-c2ccnc(N)n2)sc2ccc(Cc3cccc(O)c3)cc12
2: COc1cccc(Cc2ccc3sc(-c4ccnc(N)n4)c(C)c3c2)c1
3: Cc1c(-c2ccnc(N)n2)sc2ccc(CN)cc12
4: Cc1c(-c2ccncc2)sc2ccc(Cl)cc12
Arrange the 4 entries by IC50 so the values rise. Use the labels to give the ranking in the order requested.
1, 2, 3, 4

P: COc1ccc(Cc2ccc3sc(-c4ccnc(N)n4)c(C)c3c2)cc1
Q: Cc1c(-c2cc(N)ncn2)sc2ccc(Cl)cc12
Which of these two has the smaller recorded IC50: P or Q ? Label of pick, please.
P
(P: 7200 nM, Q: 13000 nM)

1: CCC(N)c1ccc2sc(-c3ccnc(N)n3)c(C)c2c1 (racemic)
2: CNc1nccc(-c2sc3ccc(Cl)cc3c2C)n1
Given the two records 1 and 2 , choose the one whose IC50 value is lower. Label of pick, please.
1

* * *

experiment: Aqueous solubility of the compound; assay type: physicochemical; settings: water (aqueous)
Endpoint label: solubility (µM)

>  <Smiles record>
Cc1c(-c2ccnc(N)n2)sc2ccc(Nc3cccc(O)c3)cc12

>  <solubility [µM]>
30

$$$$

P: COc1cccc(Cc2ccc3sc(-c4ccnc(N)n4)c(C)c3c2)c1
Q: Cc1c(-c2ccnc(N)n2)sc2ccc(Cc3cccc(O)c3)cc12
Which is greater in solubility, the first item P or the second item Q ? Indicate which entry you chose by stating its label.
P
(P: 40 µM, Q: 10 µM)
